Test system: TK-10 renal
Experiment: NCI-60 one-dose screen, 48 h
Details: 10 µM unless noted
Procedure: Growth inhibition of the TK-10 human tumor cell line is measured as a screen for anti-cancer activity. Cells are grown in 96 well plates and exposed to the test compound for 48 hours. Compounds are tested at a single concentration, which is 10^-5 M for most compounds. The reported endpoint is percent growth (GI% or GIPRCNT), where numbers from 0 - 100% represent growth inhibition, and numbers from -100% - 0 represent cell death. For example, a value of 40 represents 60% growth inhibition. […]
About 83,000 compounds went through this panel and 20% of them were active in at least one assay; those are over-represented in the sample as a whole. Active and inactive are the calls of the source. The calls were made as follows: active = growth percent below 10; inactive = the rest.
Mark one answer only. Choices: active, inactive

Returns: the outcome recorded for CC[C@H](C)[C@H](N)C(=O)O in this assay.
inactive

What was the test verdict on C=CCOC(=O)C1=C(C)NC2=C(C(=O)CCC2)C1c1ccc(F)cc1 (stereo unspecified) ?
inactive

In this assay, the call recorded for O=C(Nc1ccc(Cl)cc1)c1cc(-c2ccc(Cl)cc2)c2sc(=O)[nH]c2n1 was what?
active

Just curious, what result did N=C(N)c1ccc(-c2ccc(-c3ccco3)o2)cc1F get here?
active

GET /call?item= Cc1cccc2nc3ccccc3c(Nc3ccc(NS(C)(=O)=O)cc3)c12 returns the recorded outcome of this test.
inactive

I would be grateful if you could indicate the recorded call for Nc1c(C(=O)Nc2ccccc2)sc2nc3c(cc12)C(=O)CCC3 .
inactive

----------
Give growth for every item shown.
Tested on: OVCAR-5 ovarian
Assay: NCI-60 one-dose screen, 48 h (100 = growth as untreated, 0 = no growth, -100 = all killed)
Details: 10 µM unless noted
About 83,000 compounds went through this panel and 20% of them were active in at least one assay; those are over-represented in the sample as a whole.
The answer is to be given in %; state only the numeric part.

Name the recorded growth for CCOC(=O)C1C(=O)C=C(c2ccccc2)CC1c1sc(N(C)Cc2ccccc2)nc1Cl (centres undefined) .
107

Any idea what its growth is? The molecule is COc1ccc(C(=O)O)cc1.[Ag]
104

Request the reported growth associated with Fc1ccc(-c2cnc3nonc3n2)c(F)c1
96.8

Suppose we examine the molecule O=P(O)(O)C(O)(Cc1cccnc1)P(=O)(O)O ; what growth value has been reported?
118

Which measured growth value corresponds to O=C(CCl)Nc1ccc2c(c1)C(=O)c1ccccc1C2=O ?
18.6

What does the data say about its growth? Entry: CCCCCN(CCCCC)C(=O)C(CCC(=O)O)NC(=O)c1ccc(Cl)c(Cl)c1 (centres undefined)
102

I would be grateful if you could share the reported growth for c1ccc(-c2ccc(-c3ccccc3)[nH]2)cc1 .
104

Given the entry C[C@H](NC(=O)c1snnc1C1CC1)c1c(F)cccc1Cl , report its measured growth.
115

Data request, read-out growth, for CN(C)CC(=O)c1ccc2cc(Br)c3ccccc3c2c1
83.7

Give the measured growth of Nc1c(C(=O)Nc2ccccc2)sc2nc3c(cc12)C(=O)CCC3 .
59.9

Quick one: growth for O/N=C1\c2ccccc2-c2ccc(Br)cc21 ?
113

Given the molecule CCN1C(=O)C(C)C=C(C)C=C1C (centres undefined) , what is its reported growth?
106

Consider the molecule CN(C)CCCN1c2ccccc2CCc2ccccc21 and give its measured growth.
103

# get_value(readout='growth', item= Nc1c(C(=O)Nc2cccc(Cl)c2)sc2nc3c(cc12)C(=O)CCC3 )
58.3

Field request: growth | item: COc1cc(NC(=O)CSc2nc3ccc(Cl)cc3c(=O)n2Cc2ccccc2)cc(OC)c1OC
85.4

Please report the recorded growth for CCN(CC)c1ccc(/C=N/NC(=O)C[N+](C)(C)C)cc1 .
99.1

Report growth for CC(=O)OC[C@H]1O[C@@H](n2c(=O)cc(N)[nH]c2=O)C(OC(C)=O)[C@@H]1OC(C)=O (some centres undefined) please.
99.8

Any idea what growth was measured for CCOC(=O)C1=C(C)NC(=S)NC1c1ccccc1 (centres undefined) ?
101

Value lookup for growth; key = COc1ccc(CNc2c3ccccc3nc3ccccc23)cc1F
36.9

Data request, read-out growth, for NC(N)=N/N=C/c1cccc(Cl)c1Cl
85

So what does the record say about growth for CCCCCCCCCCCCCC ?
108

Quick check: growth of CCCCCCCCCCCCNC(=O)N[C@H](C(=O)N[C@H]1/C=C/OCCNC(=O)/C=C/[C@H](C(C)C)NC1=O)C(C)C ?
36.1

Sample CCN(CC)c1ccc(/C=N/N=C(N)N)cc1 — what was its growth?
79.8

Query: growth; subject: COc1ccc(-n2c(COc3ccc(F)cc3)n[nH]c2=S)cc1
110
